experiment notes: stimulators of insulin release from INS-1E, primary screen, cell-based, 5 mM glucose, NPC library (AID 1117329); note: reference of the scale not given here
reported conditions: rat INS-1E insulin secretion, at 10 µM, hits give high values
Entries and their insulin secretion stimulation values follow.
measured quantity: insulin secretion stimulation (%)

[[record]]
molecule = "O=C(O)CCCCCCCC(=O)O"
readout_number = 0.4

[[record]]
molecule = "CCOC(=O)OC(C)OC1=C(C(=O)Nc2ccccn2)N(C)S(=O)(=O)c2ccccc21 (centres undefined)"
readout_number = 0.55

[[record]]
molecule = "CCCOc1ccccc1-c1nc2n[nH]nc2c(=O)[nH]1"
readout_number = -0.8

[[record]]
molecule = "CN(C)CCCN1c2ccccc2Sc2ccccc21"
readout_number = 14.5

[[record]]
molecule = "C[C@]12CC[C@@H]3c4ccc(O)cc4CC[C@H]3[C@@H]1C[C@@H](O)[C@@H]2O"
readout_number = 2

[[record]]
molecule = "CC(=O)NS(=O)(=O)c1ccc(N)cc1"
readout_number = -1.9

[[record]]
molecule = "CN1CCC(=C2c3ccccc3Sc3ccccc32)CC1"
readout_number = 28.8

[[record]]
molecule = "CSc1ccc2c(c1)C(N1CCN(C)CC1)Cc1ccccc1S2 (centres undefined)"
readout_number = 30.7

[[record]]
molecule = "CC(C)(Oc1ccc(CCNC(=O)c2ccc(Cl)cc2)cc1)C(=O)O"
readout_number = 0.4

[[record]]
molecule = "CC(CN(C)C)CN1c2ccccc2CCc2ccccc21 (centres undefined)"
readout_number = 2.4

[[record]]
molecule = "CC(C)(Sc1cc(C(C)(C)C)c(O)c(C(C)(C)C)c1)Sc1cc(C(C)(C)C)c(O)c(C(C)(C)C)c1"
readout_number = 3.7

[[record]]
molecule = "COc1cc(C(=O)NS(=O)(=O)c2ccccc2C)ccc1Cc1cn(C)c2ccc(NC(=O)OC3CCCC3)cc12"
readout_number = 3.85

[[record]]
molecule = "COc1cc(NS(=O)(=O)c2ccc(N)cc2)nc(OC)n1"
readout_number = 1.8

[[record]]
molecule = "CCO/C([O-])=N/c1c[n+](N2CCOCC2)no1"
readout_number = 0.9

[[record]]
molecule = "CN1CCC(=C2c3ccccc3C=Cc3ccccc32)CC1"
readout_number = 0.2

[[record]]
molecule = "O=C(OCC(O)CO)c1ccccc1Nc1ccnc2cc(Cl)ccc12 (centres undefined)"
readout_number = 6.1

[[record]]
molecule = "CN1CCN(C2=Nc3cc(F)ccc3Cc3ccccc32)CC1"
readout_number = 3.3

[[record]]
molecule = "C=CCc1ccccc1OCC(O)CNC(C)C (centres undefined)"
readout_number = 2.2

[[record]]
molecule = "CN(C)CCCN1c2ccccc2Sc2ccc(C(F)(F)F)cc21"
readout_number = 5.8

[[record]]
molecule = "NC(N)=NC(=O)Cc1c(Cl)cccc1Cl"
readout_number = -2.2

[[record]]
molecule = "CN(C)C(=O)Nc1ccc(Cl)c(Cl)c1"
readout_number = -2.3

[[record]]
molecule = "COc1cc([C@H]2Oc3cc([C@H]4Oc5cc(O)cc(O)c5C(=O)[C@@H]4O)ccc3O[C@@H]2CO)ccc1O"
readout_number = 1.8

[[record]]
molecule = "CN1C(C(=O)Nc2ccccn2)=C(O)c2sccc2S1(=O)=O"
readout_number = 1.6

[[record]]
molecule = "O=C(O)CCCC[C@@H]1SC[C@@H]2NC(=O)N[C@@H]21"
readout_number = -0.9

[[record]]
molecule = "O=C(O)c1ccc(S(=O)(=O)N(Cl)Cl)cc1"
readout_number = 1.2

[[record]]
molecule = "CCCc1c(OCCCCc2nn[nH]n2)ccc(C(C)=O)c1O"
readout_number = -0.7

[[record]]
molecule = "CC(=O)Oc1cccc(O)c1"
readout_number = 2.6

[[record]]
molecule = "O=C(O)CSCC(=O)NC1CCSC1=O (centres undefined)"
readout_number = -1.9

[[record]]
molecule = "Nc1ccn([C@H]2CC[C@@H](CO)O2)c(=O)n1"
readout_number = -0.3

[[record]]
molecule = "NS(=O)(=O)Cc1noc2ccccc12"
readout_number = -1.7

[[record]]
molecule = "OCc1cccnc1"
readout_number = -1.9

[[record]]
molecule = "CCCOc1ccc(C(=O)OCCN(CC)CC)cc1N"
readout_number = 1.5

[[record]]
molecule = "C[N+]1(CCCCC[N+]2(C)CCCC2)CCCC1"
readout_number = 2.5

[[record]]
molecule = "CC[C@]12CCCN3CCc4c(n(c5ccccc45)[C@@](O)(C(=O)OC)C1)[C@@H]32"
readout_number = -1.7

[[record]]
molecule = "O=C1CC2(CCCC2)CC(=O)N1CCCCN1CCN(c2ncccn2)CC1"
readout_number = -0.8

[[record]]
molecule = "Cc1cccc(C(=O)O)c1O"
readout_number = -1.9

[[record]]
molecule = "CCCCCN(CCCCC)C(=O)C(CCC(=O)O)NC(=O)c1ccc(Cl)c(Cl)c1 (centres undefined)"
readout_number = 2.8

[[record]]
molecule = "CC(C)(C)CC(C)(C)c1ccc(O)c(Cc2ccc(Cl)cc2Cl)c1"
readout_number = 4.4

[[record]]
molecule = "NCCCC(=O)O"
readout_number = -0.7

[[record]]
molecule = "CC(=O)OCC(=O)[C@H]1CC[C@H]2[C@@H]3CCC4=CC(=O)CC[C@]4(C)[C@H]3CC[C@]12C"
readout_number = 0.3

[[record]]
molecule = "CCN(CC)CCOc1ccc(/C(=C(\\Cl)c2ccccc2)c2ccccc2)cc1"
readout_number = 3.6

[[record]]
molecule = "Clc1ccc(C(c2ccccc2Cl)C(Cl)Cl)cc1 (centres undefined)"
readout_number = 1.4

[[record]]
molecule = "CCOC(=O)n1ccn(C)c1=S"
readout_number = 0.6

[[record]]
molecule = "Cc1cc(=O)[nH]c(=S)[nH]1"
readout_number = -0.5

[[record]]
molecule = "Nc1ccc(C(=O)O)cc1"
readout_number = -1

[[record]]
molecule = "Cc1ccc2c(Cl)cc(Cl)c(O)c2n1"
readout_number = -0.8

[[record]]
molecule = "CN(C)c1ccc(C(=C2C=CC(=[N+](C)C)C=C2)c2ccc(N(C)C)cc2)cc1"
readout_number = -0.2

[[record]]
molecule = "CC(C)(O)c1ccccc1CC[C@@H](SCC1(CC(=O)O)CC1)c1cccc(/C=C/c2ccc3ccc(Cl)cc3n2)c1"
readout_number = 1.4

[[record]]
molecule = "CCCCCCCCCCCCCCCCCCOCC(O)CO (centres undefined)"
readout_number = 1.3

